Origin of values: patent US12215093B2

The listing below reports pIC50 for compounds tested on EP2 (Homo sapiens, UniProt P43116).
Sequence (P43116 whole entry): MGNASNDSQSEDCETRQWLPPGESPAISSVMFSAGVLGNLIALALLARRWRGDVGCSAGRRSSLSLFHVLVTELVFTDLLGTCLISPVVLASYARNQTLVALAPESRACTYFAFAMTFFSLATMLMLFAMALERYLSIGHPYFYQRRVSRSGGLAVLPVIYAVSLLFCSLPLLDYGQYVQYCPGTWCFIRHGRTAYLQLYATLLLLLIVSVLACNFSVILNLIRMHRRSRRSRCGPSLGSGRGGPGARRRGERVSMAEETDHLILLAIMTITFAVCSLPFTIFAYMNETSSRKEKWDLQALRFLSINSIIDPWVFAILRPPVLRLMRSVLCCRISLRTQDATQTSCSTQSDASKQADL
pIC50: −log10 of the molar value.
Metric Name: pIC50

compound="CNC(=O)c1cccc(-c2ccc(Cn3ncc4c(Cl)ccc(C(=O)NC5CC6(C5)CC(C(=O)O)C6)c43)cc2)n1 (stereo not shown)" target="EP2 (Homo sapiens, UniProt P43116)" metric_name=pIC50 assay_result=7.52
compound="COc1cc(-c2ccc(Cn3ccc4c(Cl)ccc(C(=O)NC5CC6(C5)CC(C(=O)O)C6)c43)cc2)ccn1 (stereo not shown)" target="EP2 (Homo sapiens, UniProt P43116)" metric_name=pIC50 assay_result=7.48
compound="COc1cccc(-c2ccc(Cn3ncc4c(Cl)ccc(C(=O)NC5CC6(CC(CC(=O)O)C6)C5)c43)cc2)n1 (stereo not shown)" target="EP2 (Homo sapiens, UniProt P43116)" metric_name=pIC50 assay_result=7.42

* * *

Target: EP4 (Homo sapiens)
Sequence (P35408 whole entry): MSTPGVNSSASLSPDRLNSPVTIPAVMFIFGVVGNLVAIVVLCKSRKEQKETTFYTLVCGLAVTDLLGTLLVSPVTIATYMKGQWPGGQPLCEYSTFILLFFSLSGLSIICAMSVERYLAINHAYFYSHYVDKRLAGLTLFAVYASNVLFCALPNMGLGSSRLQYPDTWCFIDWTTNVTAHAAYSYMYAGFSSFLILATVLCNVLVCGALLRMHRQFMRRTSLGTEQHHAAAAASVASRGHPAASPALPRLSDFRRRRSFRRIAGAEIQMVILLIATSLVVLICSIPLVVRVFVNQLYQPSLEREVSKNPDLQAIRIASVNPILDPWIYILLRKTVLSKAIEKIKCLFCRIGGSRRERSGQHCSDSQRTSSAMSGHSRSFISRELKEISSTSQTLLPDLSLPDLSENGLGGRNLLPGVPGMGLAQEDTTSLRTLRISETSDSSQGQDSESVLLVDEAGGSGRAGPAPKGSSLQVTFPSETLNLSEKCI
Assay Protocol: Functional calcium flux assay, EP4
Experimental Conditions: stably transfected HEK293 cells; PGE2 10 nM; read-out: EP4 Ca2+-flux assay IC50
Below, each entry is listed with its recorded IC50.

IC50 for O=C(NC1CC2(C1)CC(C(=O)O)C2)c1ccc(Cl)c2cnn(Cc3ccc(C4=CCCCC4)c(F)c3)c12 (stereo not drawn) ? < 1 nM

Now consider COc1cccc(-c2ccc(Cn3ccc4c(F)ccc(C(=O)NC5CC6(C5)CC(C(=O)O)C6)c43)cc2)c1 (racemic) and answer again. < 1 nM

Please give the result for O=C(NC1CC2(C1)CC(C(=O)O)C2)c1ccc(Cl)c2ccn(Cc3ccc(N4CCOCC4)cc3)c12 (stereo not drawn) too. < 1 nM

COc1cc(C#N)cc(-c2ccc(C(C)n3ncc4c(Cl)ccc(C(=O)NC5CC6(C5)CC(C(=O)O)C6)c43)cc2)c1 (racemic) ? 12 nM

Record: O=C(NC1CC2(C1)CC(C(=O)O)C2)c1ccc(F)c2ccn(Cc3ccc(OC(F)(F)F)cc3)c12 (racemic) [Example 1] < 1 nM

What about CC(c1ccc(-c2ccccc2)cc1)n1ncc2cccc(C(=O)NC3CC4(C3)CC(C(=O)O)C4)c21 (single isomer, unassigned) [Example 125] ? < 1 nM

* * *

Target: EP2 (Homo sapiens);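 further: functional calcium flux assay in stably transfected HEK293 cells expressing EP2 coupled via a promiscuous G protein, clytin luminescence read as area under the curve, 30 min compound preincubation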
Assay Protocol: cell-based
pIC50: −log10 of the molar value.
Metric Name: pIC50

compound="[2H]C([2H])([2H])C([2H])(c1ccc(-c2ccccc2)cc1)n1ncc2c(Cl)ccc(C(=O)NC3CC4(C3)CC(C(=O)O)C4)c21 (single isomer, unassigned) [Example 167]" assay_result=7.39

(A) COc1cccc(-c2ccc(Cn3ccc4c(F)ccc(C(=O)NC5CC6(CC(CC(=O)O)C6)C5)c43)cc2)n1 (stereo not drawn)
(B) O=C(NC1CC2(C1)CC(C(=O)O)C2)c1ccc(F)c2ccn(Cc3ccc(OC(F)(F)F)cc3)c12 (racemic) [Example 1]
Sorting by pIC50 in descending order, would A or B appear first? Answer with the label corresponding to your selection. B
(B: 7.47, A: 7.21)

* * *

pIC50: −log10 of the molar value.
Entries below carry reported pIC50 on EP2 (Homo sapiens).
Metric Name: pIC50

compound="O=C(NC1CC2(C1)CC(C(=O)O)C2)c1ccc(Cl)c2cnn(Cc3ccc(-n4cccn4)cc3)c12 (stereo not shown)" assay_result=7.15

(P) O=C(O)CC1CC2(C1)CC(NC(=O)c1ccc(OC(F)F)c3cnn(Cc4ccc(-c5ccccc5)cc4)c13)C2 (stereo not shown)
(Q) O=C(NC1CC2(C1)CC(C(=O)O)C2)c1ccc(Cl)c2cnn(Cc3ccc(OC(F)(F)F)cc3)c12 (stereo not shown)
Two entries are listed, P and Q . Which one carries the higher pIC50? Mark your selection by writing its label. P
(P: 7.28, Q: 7.08)
